Test: MM1S myeloma cell viability, profiling panel, resazurin fluorescence, basal, 24 h, PK04 Diversity Set (AID 1174);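 further: MM1S multiple myeloma cell line; test concentration not given here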
Settings: higher = more signal, called active from +8 up or from −8 down
Each item that follows carries a reported z-score.

compound	z-score
C[N+](C)(C)CCCC[C@@H]1NC(=O)[C@@H]2C[C@H](C(=O)NCCCCCN)[C@H](c3cccc(OCCO)c3)N2C1=O	-1.23
COCCOC(=O)N1C(=O)[C@@]2(c3cc(C#CC4(O)CCCCCC4)ccc31)[C@H](c1ccc(O)cc1)N1[C@H](c3ccccc3)[C@H](c3ccccc3)OC(=O)[C@H]1[C@@H]2C(=O)Nc1nc2ccccc2s1	0.0851
CCN(CC)c1ccc(N2CC=CC34O[C@@H]5/C=C\CCC(C)OC(=O)C5[C@H]3C(=O)N(C(CO)C(C)C)[C@@H]4C2=O)cc1 (stereo not given in full)	0.509
CCOC(=O)C[C@H]1[C@H](OC(=O)Cc2ccc3c(c2)OCO3)[C@@H](NC(=O)c2ccc(-c3ccccc3)cc2)c2cc(OCCCO)ccc2N1C(=O)c1ccc2ccccc2n1	0.878
C=CCC(OC(C)=O)[C@@H]1[C@@H](N(Cc2ccc(-c3cccc(C(F)(F)F)c3)o2)C(=O)c2ccc(-c3ccccc3)cc2)c2cc(OCCCO)ccc2N1C(=O)c1ccc(-c2ccccc2)cc1 (stereo not given in full)	0.0516
Cc1ccc(S[C@]2(C(=O)NC(C)C)CC(=O)N(Cc3ccccc3Cl)[C@@H]2c2ccc(CO)cc2I)cc1	-2.83
O=C1OCC=C[C@H]2OC34C=CCN(c5ccc6ccccc6c5)C(=O)[C@H]3N(CCCCCCO)C(=O)[C@@H]4[C@@H]12 (stereo not given in full)	0.645
C=C(CCCC)C(=O)CC[C@@H](OC(=O)c1cccnc1)c1ccc(CO)o1	-0.16
CC(C)C(CO)N1C(=O)[C@@H]2[C@H]3C(=O)OCC=C[C@H]3OC23C=CCN(C(C)C)C(=O)[C@@H]13 (stereo not given in full)	0.713
CCCCC(=C=CC[C@@H](O)c1ccccc1OCCO)CCO	0.684

Data provenance is PubChem BioAssay.
